Origin of measurements: ChEMBL document CHEMBL1138451

molecular target: UniProt:P56817; experiment: Inhibition of human recombinant Arg235 region of BACE1 at 0.2 uM by FRET assay
readout-name: inhibition (%)

# chem-smiles, recorded-value
measured = [
    ("O=C(N[C@@H](Cc1ccccc1)[C@H](O)C(=O)Nc1cccc(-c2nn[nH]n2)c1)c1cc(I)cc(C(=O)N2COC[C@@H]2c2ccc(F)cc2)n1", 92),
    ("O=C(N[C@@H](Cc1ccccc1)[C@H](O)C(=O)Nc1cccc(-c2nn[nH]n2)c1)c1cc(Br)cc(C(=O)N2COC[C@@H]2c2ccc(F)cc2)n1", 93),
    ("O=C(N[C@@H](Cc1ccccc1)[C@H](O)C(=O)Nc1cccc(-c2nn[nH]n2)c1)c1cc(Br)cc(C(=O)N2COC[C@@H]2c2ccccc2)n1", 88),
    ("O=C(N[C@@H](Cc1ccccc1)[C@H](O)C(=O)Nc1cccc(-c2nn[nH]n2)c1)c1cc(Cl)cc(C(=O)N2COC[C@@H]2c2ccc(F)cc2)n1", 91),
    ("O=C(N[C@@H](Cc1ccccc1)[C@H](O)C(=O)Nc1cccc(-c2nn[nH]n2)c1)c1cc(I)cc(C(=O)N2COC[C@@H]2c2ccccc2)n1", 86),
    ("O=C(N[C@@H](Cc1ccccc1)[C@H](O)C(=O)Nc1cccc(-c2nn[nH]n2)c1)c1cc(Cl)cc(C(=O)N2COC[C@@H]2c2ccccc2)n1", 87),
]

====

target: UniProtKB P56817; test: Inhibition of human recombinant Arg235 region of BACE1 at 2 uM by FRET assay
readout-name: inhibition (%)

# chem-smiles, recorded-value
measured = [
    ("O=C(N[C@@H](Cc1ccccc1)[C@H](O)C(=O)Nc1cccc(-c2nn[nH]n2)c1)c1cc(Cl)cc(C(=O)N2COC[C@@H]2c2ccc(F)cc2)n1", 99),
    ("O=C(N[C@@H](Cc1ccccc1)[C@H](O)C(=O)Nc1cccc(-c2nn[nH]n2)c1)c1cc(Br)cc(C(=O)N2COC[C@@H]2c2ccc(F)cc2)n1", 99),
    ("O=C(N[C@@H](Cc1ccccc1)[C@H](O)C(=O)Nc1cccc(-c2nn[nH]n2)c1)c1cc(Cl)cc(C(=O)N2COC[C@@H]2c2ccccc2)n1", 98),
]

====

molecular target: Beta-secretase 1 (Homo sapiens, UniProt P56817); assay: Inhibition of human recombinant Arg235 region of BACE1 at 2 uM by FRET assay
Sequence (P56817 whole entry): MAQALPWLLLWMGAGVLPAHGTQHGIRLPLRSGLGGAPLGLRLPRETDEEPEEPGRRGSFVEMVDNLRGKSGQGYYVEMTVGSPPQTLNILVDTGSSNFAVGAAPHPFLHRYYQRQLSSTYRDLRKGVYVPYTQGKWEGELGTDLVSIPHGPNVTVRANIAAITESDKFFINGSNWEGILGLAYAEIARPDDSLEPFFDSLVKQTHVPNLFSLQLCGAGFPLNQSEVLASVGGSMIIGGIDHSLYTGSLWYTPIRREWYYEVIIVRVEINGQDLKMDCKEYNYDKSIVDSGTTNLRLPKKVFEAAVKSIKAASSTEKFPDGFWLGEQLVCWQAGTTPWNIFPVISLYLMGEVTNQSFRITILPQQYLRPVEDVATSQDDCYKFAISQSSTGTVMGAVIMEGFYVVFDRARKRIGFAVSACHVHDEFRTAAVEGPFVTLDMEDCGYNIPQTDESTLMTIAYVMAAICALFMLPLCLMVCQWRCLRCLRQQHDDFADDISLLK
readout-name: inhibition (%)

# chem-smiles, readout-name, recorded-value
rows = [
    ("O=C(N[C@@H](Cc1ccccc1)[C@H](O)C(=O)Nc1cccc(-c2nn[nH]n2)c1)c1cc(Br)cc(C(=O)N2COC[C@@H]2c2ccccc2)n1", "inhibition", 99),
    ("O=C(N[C@@H](Cc1ccccc1)[C@H](O)C(=O)Nc1cccc(-c2nn[nH]n2)c1)c1cc(I)cc(C(=O)N2COC[C@@H]2c2ccc(F)cc2)n1", "inhibition", 99),
    ("O=C(N[C@@H](Cc1ccccc1)[C@H](O)C(=O)Nc1cccc(-c2nn[nH]n2)c1)c1cc(I)cc(C(=O)N2COC[C@@H]2c2ccccc2)n1", "inhibition", 99),
    ("O=C(N[C@@H](Cc1ccccc1)[C@H](O)C(=O)Nc1cccc(-c2nn[nH]n2)c1)c1cccc(C(=O)N2COC[C@@H]2c2ccccc2)n1", "inhibition", 89),
]

====

biological target: Beta-secretase 1 (Homo sapiens); assay: Inhibition of human recombinant Arg235 region of BACE1 by FRET assay
readout-name: IC50 (µM)

Recorded results for 3 compounds are shown here.
# chem-smiles, IC50 / µM
data = [
    ("O=C(N[C@@H](Cc1ccccc1)[C@H](O)C(=O)Nc1cccc(-c2nnn[nH]2)c1)c1cc(Br)cc(C(=O)N2COC[C@@H]2c2ccccc2)n1", 0.015),
    ("O=C(N[C@@H](Cc1ccccc1)[C@H](O)C(=O)Nc1cccc(-c2nnn[nH]2)c1)c1cc(I)cc(C(=O)N2COC[C@@H]2c2ccc(F)cc2)n1", 0.01),
    ("O=C(N[C@@H](Cc1ccccc1)[C@H](O)C(=O)Nc1cccc(-c2nn[nH]n2)c1)c1cc(I)cc(C(=O)N2COC[C@@H]2c2ccccc2)n1", 0.024),
]

(A) O=C(N[C@@H](Cc1ccccc1)[C@H](O)C(=O)Nc1cccc(-c2nnn[nH]2)c1)c1cc(Cl)cc(C(=O)N2COC[C@@H]2c2ccccc2)n1
(B) O=C(N[C@@H](Cc1ccccc1)[C@H](O)C(=O)Nc1cccc(-c2nnn[nH]2)c1)c1cc(Br)cc(C(=O)N2COC[C@@H]2c2ccc(F)cc2)n1
(C) O=C(N[C@@H](Cc1ccccc1)[C@H](O)C(=O)Nc1cccc(-c2nn[nH]n2)c1)c1cc(Cl)cc(C(=O)N2COC[C@@H]2c2ccc(F)cc2)n1
[ask] Hey, quick one: sort these by IC50, largest value first please. Give your ranking as a list of the labels in the requested order.
[reply] A, C, B
